Catalogue of IC50 values
- System: MCF 7 cells
- test.summary: MCF 7 cell growth inhibition test
- Format: cell-based
- assay.setup: Homo sapiens, MCF7; MCF-7 cells, contact for 72 hours; read-out: cell growth inhibitory activity IC50, MCF-7
readout.kind: IC50 (µg/mL)

1. C[C@]12O[C@H](C[C@]1(O)CO)n1c3ccc(O)cc3c3c4c(c5c6ccccc6n2c5c31)CNC4=O (relative stereo): 0.76
2. COC(=O)[C@@]1(O)C[C@H]2O[C@]1(C)n1c3ccc(N)cc3c3c4c(c5c6cc(N)ccc6n2c5c31)C(=O)NC4 (relative stereo): 0.95
3. C[C@]12O[C@H](C[C@]1(O)CO)n1c3ccc(N)cc3c3c4c(c5c6ccccc6n2c5c31)CNC4=O (relative stereo): 0.34

----------
- target.of.assay: C-kinase (protein kinase C)
- test.summary: C-Kinase inhibitory activity test
- Assay type: biochemical
- assay.setup: enzyme activity inhibited 50%
Lab note: compare C-Kinase inhibitory activity IC50 against 0.02 µg/mL. Equal or greater, write Criterion met. Smaller, write Criterion not met.

1) C[C@]12O[C@H](C[C@]1(O)CN)n1c3ccccc3c3c4c(c5c6ccccc6n2c5c31)CNC4=O (relative stereo) [Compound 30]: Criterion not met
2) CC12OC(CC1(O)CO)n1c3ccccc3c3c4c(c5c6ccccc6n2c5c31)C(=O)NC4=O (stereo not drawn) [Compound 67]: Criterion not met
3) C[C@]12O[C@H](C[C@]1(O)CO)n1c3ccc(N)cc3c3c4c(c5c6ccccc6n2c5c31)CNC4=O (relative stereo) [Compound 23]: Criterion met
4) COC(=O)[C@@]1(O)C[C@H]2O[C@]1(C)n1c3ccccc3c3c4c(c5c6cc(O)ccc6n2c5c31)C(=O)NC4 (relative stereo) [Compound 15]: Criterion not met
5) CC12OC(CC13CNC(=S)O3)n1c3ccccc3c3c4c(c5c6ccccc6n2c5c31)CNC4=O (stereo not drawn) [Compound 58]: Criterion not met
6) COC(=O)[C@@]1(O)C[C@H]2O[C@]1(C)n1c3ccccc3c3c4c(c5c6cc(N)ccc6n2c5c31)C(=O)NC4 (relative stereo) [Compound 9]: Criterion met
7) COC(=O)[C@@]1(O)C[C@H]2O[C@]1(C)n1c3ccccc3c3c4c(c5c6cc(Br)ccc6n2c5c31)C(=O)NC4 (relative stereo) [Compound 7]: Criterion met
8) C[C@]12O[C@H](C[C@]1(O)C(=O)NO)n1c3ccccc3c3c4c(c5c6ccccc6n2c5c31)CNC4=O (relative stereo) [Compound 1]: Criterion not met
9) C[C@]12O[C@H](C[C@]1(O)CO)n1c3ccc(O)cc3c3c4c(c5c6ccccc6n2c5c31)CNC4=O (relative stereo) [Compound 21]: Criterion not met
10) CC12OC(CC1O)n1c3ccccc3c3c4c(c5c6ccccc6n2c5c31)CNC4=O (stereo not drawn) [Compound 48]: Criterion met

Source listed as patent US4923986A.
